SYSTEM: μ-receptor (isolated guinea pig ileum, GPI) (Cavia porcellus)
Sequence (P97266 whole entry): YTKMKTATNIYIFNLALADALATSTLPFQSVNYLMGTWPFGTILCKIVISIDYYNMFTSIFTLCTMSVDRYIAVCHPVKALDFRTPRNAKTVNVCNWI
PROTOCOL_SUMMARY: Peripheral opioid activity: inhibition of electrically-induced contractions of isolated guinea pig ileum (GPI)
STATED_CONDITIONS: negative logarithm of EC50
Protocol: The segment of GPI about 1 cm long was placed into a 10-ml organ bath containing Krebs solution at 34° C. […] Resting tension of the organ was 1 g. The segment of GPI was stimulated by single pulses duration 1 ms with 0.1 Hz at 80 V. The solution with isolated organs was constantly aerated. The contractions were recorded in an isometrical mode by a sensor K 30 (Hugo Sachs Elektronic KG) with paper register Rikadenki-series (Japan). […]
Square brackets hold non-standard residues; d marks the D form. Peptide text beside a SMILES is read from it. * marks the point of attachment. X1 = O=C(O)CC[C@@H]1NC(=O)[C@H](CCCCN*)NC1=O
MEASURED_QUANTITY: Value of pD2 (M ± m)

1) C[C@@H](NC(=O)[C@H](Cc1ccccc1)NC(=O)[C@@H](C)NC(=O)[C@@H](N)Cc1ccc(O)cc1)C(=O)N[C@@H](Cc1ccc(O)cc1)C(=O)N1CCC[C@H]1C(=O)N[C@@H](CO)C(=O)NCCCC[C@@H]1NC(=O)[C@H](CCC(=O)N[C@@H](Cc2c[nH]c3ccccc23)C(N)=O)NC1=O
7.96
2) C[C@@H](NC(=O)[C@H](Cc1ccccc1)NC(=O)[C@@H](C)NC(=O)[C@@H](N)Cc1ccc(O)cc1)C(=O)NCCCC[C@@H]1NC(=O)[C@H](CCC(=O)O)NC1=O [Compound 44] (H-Y[dA]F[dA]-X1)
6.15
3) COC(=O)[C@H](Cc1c[nH]c2ccccc12)NC(=O)CC[C@@H]1NC(=O)[C@H](CCCCNC(=O)[C@@H](C)NC(=O)[C@H](Cc2ccccc2)NC(=O)[C@@H](C)NC(=O)[C@@H](N)Cc2ccc(O)cc2)NC1=O
5.68
4) CC(C)C[C@H](NC(=O)[C@H](Cc1ccccc1)NC(=O)CNC(=O)[C@@H](C)NC(=O)[C@@H](N)Cc1ccc(O)cc1)C(=O)N[C@@H](CCCNC(=N)N)C(=O)O [Compound 56, H-Tyr-D-Ala-Gly-Phe-Leu-Arg-OH] (H-Y[dA]GFLR-OH)
7.53
5) C[C@@H](NC(=O)[C@H](Cc1ccccc1)NC(=O)[C@@H](C)NC(=O)[C@@H](N)Cc1ccc(O)cc1)C(=O)N[C@@H](Cc1ccc(O)cc1)C(=O)N1CCC[C@H]1C(=O)N[C@@H](CO)C(=O)NCCCC[C@@H]1NC(=O)[C@H](CCC(=O)N[C@@H](Cc2c[nH]c3ccccc23)C(=O)O)NC1=O
7.52
6) C[C@@H](NC(=O)[C@H](Cc1ccccc1)NC(=O)[C@@H](C)NC(=O)[C@H](Cc1ccc(O)cc1)NC(=O)[C@@H](N)CCCNC(=N)N)C(=O)O [Compound 53, H-Arg-Tyr-D-Ala-Phe-D-AlaOH] (H-RY[dA]F[dA]-OH)
6.06
7) C[C@@H](NC(=O)[C@@H](N)Cc1ccc(O)cc1)C(=O)N[C@@H](Cc1ccccc1)C(=O)NCC(=O)N[C@@H](Cc1ccc(O)cc1)C(=O)N1CCC[C@H]1C(=O)N[C@@H](CO)C(N)=O
8.56
8) C[C@@H](NC(=O)[C@H](Cc1ccc(O)cc1)NC(=O)[C@@H](N)CCCNC(=N)N)C(=O)N[C@@H](Cc1ccccc1)C(=O)NCC(=O)O [Compound 52, Arg-Tyr-D-Ala-Phe-Gly-OH] (H-RY[dA]FG-OH; N-terminus assumed)
5.50
9) CNC(=O)[C@H](CO)NC(=O)[C@@H]1CCCN1C(=O)[C@H](Cc1ccc(O)cc1)NC(=O)[C@@H](C)NC(=O)[C@H](Cc1ccccc1)NC(=O)[C@@H](C)NC(=O)[C@@H](N)Cc1ccc(O)cc1 [Compound 50, H-Tyr-D-Ala-Phe-D-Ala-Tyr-Pro-Ser-NH-CH3, reference compound] (H-Y[dA]F[dA]YPS-NHMe)
7.95
